Test system: Bursaphelenchus xylophilus
Experiment: Nematicidal activity against Bursaphelenchus xylophilus assessed as nematode mortality at 2 mg/mL measured 24 hr post dose by microscopy
Type: functional
Cut-off 20% on mortality at 2000 µg/mL, inclusive. At or above means criterion met; below means criterion not met.

Answered examples (6):
// inclusive: mortality at 2000 µg/mL at least 20%? input: C/C=C/c1cc(OC)c(OC)cc1OC [TRANS-ASARONE] criterion not met

// inclusive: mortality at 2000 µg/mL at least 20%? input: `CCCCCCCCCCO` criterion met

// inclusive: mortality at 2000 µg/mL at least 20%? input: `C=Cc1ccccc1` criterion not met

// inclusive: mortality at 2000 µg/mL at least 20%? input: CC(=O)OC/C=C(\C)CCC=C(C)C [GERANYL ACETATE] criterion not met

// inclusive: mortality at 2000 µg/mL at least 20%? input: `CC(=O)c1ccccc1` criterion not met

// inclusive: mortality at 2000 µg/mL at least 20%? input: `CCCCCCC=O` criterion met

***
// inclusive: mortality at 2000 µg/mL at least 20%? input: `CCCCCCCC=O` criterion met

// inclusive: mortality at 2000 µg/mL at least 20%? input: C/C=C\c1cc(OC)c(OC)cc1OC [CIS-ASARONE] criterion met

// inclusive: mortality at 2000 µg/mL at least 20%? input: `CCCCCCC/C=C/CO` criterion met

// inclusive: mortality at 2000 µg/mL at least 20%? input: `CCCCCCCCC=O` criterion met

// inclusive: mortality at 2000 µg/mL at least 20%? input: `C=C/C(C)=C/CC=C(C)C` criterion not met

// inclusive: mortality at 2000 µg/mL at least 20%? input: CC(O)c1ccccc1 (centres undefined) criterion not met

// inclusive: mortality at 2000 µg/mL at least 20%? input: `CCCCCCCCC` criterion not met

// inclusive: mortality at 2000 µg/mL at least 20%? input: `CCCCCCCCCCC=O` criterion met

* * *

System: Bursaphelenchus xylophilus
Experiment: Nematicidal activity against Bursaphelenchus xylophilus assessed as nematode mortality at 1 mg/mL measured 24 hr post dose by microscopy
Format: functional
Listing of recorded mortality at 1000 µg/mL by entry.
A number alone suffices; assume %.

Examples with their reported mortality at 1000 µg/mL follow.
Which measured mortality at 1000 µg/mL value corresponds to `CCCCCCCCCCCC=O` ? 86.3

Which measured mortality at 1000 µg/mL value corresponds to `CCCCCCCCC=O` ? 95.8

Which measured mortality at 1000 µg/mL value corresponds to `OC/C=C/c1ccccc1` ? 100

Which measured mortality at 1000 µg/mL value corresponds to `O=Cc1ccccc1` ? 94.1

***
Which measured mortality at 1000 µg/mL value corresponds to `CCCCCCC/C=C/CO` ? 100

Which measured mortality at 1000 µg/mL value corresponds to `CCCCCCCCCCO` ? 100

Which measured mortality at 1000 µg/mL value corresponds to `CCCCCCCCCC=O` ? 100

Which measured mortality at 1000 µg/mL value corresponds to C/C=C\c1cc(OC)c(OC)cc1OC [CIS-ASARONE] ? 100

Which measured mortality at 1000 µg/mL value corresponds to `CCCCCCCCCCC=O` ? 98.7

Which measured mortality at 1000 µg/mL value corresponds to `CCCCCCCC=O` ? 89
